molecular target: Protein-tyrosine kinase 2-beta (Homo sapiens); conditions: at 1 µM;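 note: values are the mean percent inhibition of PYK2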
Recorded inhibition, one value per entry.
Express it in %; write the number only.

Which inhibition is listed for COc1ccc2cc(-c3c(-c4ccncc4)nc(-c4ccc([S+](C)[O-])cc4)n3C)ccc2c1 (configuration not stated) ?
4.13

Which inhibition is listed for Nc1ncnc2occ(-c3ccc(NC(=O)Nc4cc(C(F)(F)F)cc(C(F)(F)F)c4)cc3)c12 ?
19.4

Which inhibition is listed for COC(=O)Nc1nc2cc(Oc3ccc(NC(=O)Nc4cccc(C(=O)O)c4)cc3)ccc2[nH]1 ?
6.37

Which inhibition is listed for CC(=O)Nc1cccc(C#Cc2cncnc2Nc2ccc(OCc3cccc(F)c3)c(Cl)c2)n1 ?
8.14

Which inhibition is listed for COc1cc2ncn(-c3cc(OCc4ccccc4C(F)(F)F)c(C(N)=O)s3)c2cc1OC ?
19.4

Which inhibition is listed for Cn1cc(C=C2C(=O)Nc3cccnc32)c2ccccc21 ?
25.2

Which inhibition is listed for O=C1NC(=O)C(c2cccc(Cl)c2)=C1Nc1ccc(O)c(Cl)c1 ?
9.11

Which inhibition is listed for O=C1NC(=O)C(c2ccc(Cl)cc2)=C1Nc1ccc(Cl)c(C(=O)O)c1 ?
3.24

Which inhibition is listed for COc1cc(C)c(NC(=O)CN(C)C)cc1Nc1nc(Nc2cccc(F)c2C(N)=O)c2cc[nH]c2n1 ?
98

Which inhibition is listed for CCn1c(-c2nonc2N)nc2c(C#CC(C)(C)O)nc(CN3CCCC3)cc21 ?
-7.23

Which inhibition is listed for Cc1nn(C)c2cc(N(C)c3ccnc(Nc4cccc(S(N)(=O)=O)c4)n3)ccc12 ?
17.8

Which inhibition is listed for Cc1cccc(-c2n[nH]cc2-c2ccc3ncccc3n2)n1 ?
0.67

Which inhibition is listed for CCCN1CCC=C(c2ccc(Nc3nc(Nc4ccccc4C(N)=O)c4cc[nH]c4n3)c(C)c2)C1 ?
94.9

Which inhibition is listed for CC1=C(C(=O)Nc2ccc3[nH]ncc3c2)C(c2ccc3ccccc3c2)CC(=O)N1 (configuration not stated) ?
7.64

Which inhibition is listed for Fc1cccc(COc2ccc(Nc3ncnc4sc(-c5cccs5)cc34)cc2Cl)c1 ?
3.37

Which inhibition is listed for COc1cc2ncn(-c3cc(OCc4ccccc4Cl)c(C(N)=O)s3)c2cc1OC ?
6.28
